Listing: Plant response rating, Foxtail, Giant of selected compounds
# Tested on: giant foxtail
# TEST NAME: Test A pre-/postemergence herbicide test
# Format: in vivo, Setaria faberii
# ASSAY CONDITIONS: Postemergence, 500 g ai/ha; 0 to 100 scale (0 no effect, 100 complete control)
# Source text: […]
Reply briefly: the number, and no unit.

Reference set, count: 5
O=C1NCC(c2ccc(F)cc2)C1C(=O)Nc1ccccc1F (racemic) :: 90
O=C1NCC(c2cccc(I)c2)C1C(=O)Nc1ccccc1C(F)(F)F (centres unmarked) :: 80
O=C1NCC(c2cccc(Br)c2)C1C(=O)Nc1cccc(F)c1F (centres unmarked) :: 80
O=C1NCC(c2ccc(Cl)c(F)c2)C1C(=O)Nc1ccccc1F (centres unmarked) :: 80
O=C1NCC(c2cc3ccccc3o2)C1C(=O)Nc1ccccc1F (racemic) :: 0

Input line: Which measured Plant response rating, Foxtail, Giant value corresponds to O=C1NCC(c2ccc(C(F)(F)F)c(Cl)c2)C1C(=O)Nc1ccccc1C(F)(F)F (racemic) ?
Output line: 20

Input line: Same read-out for O=C1NCC(c2cccc(C(F)(F)F)c2)C1C(=O)Nc1cccc(C(F)(F)F)c1 (centres unmarked) ?
Output line: 70

Input line: Same read-out for O=C1NCC(c2ccc(F)c(F)c2)C1C(=O)Nc1ccc[nH]c1=O (racemic) ?
Output line: 0

----------
Listing: Plant response rating, Pigweed of selected compounds
# System: pigweed
# TEST NAME: Test A pre-/postemergence herbicide test
# Type: in vivo, Amaranthus retroflexus
# ASSAY CONDITIONS: Postemergence, 125 g ai/ha; 0 to 100 scale, 0 no effect, 100 complete control
Reply briefly: the number, and no unit.

Reference set, count: 3
O=C1NCC(c2cccc(OC(F)(F)C(F)F)c2)C1C(=O)Nc1ccccc1F (racemic) [Compound 121] :: 0
O=C1NCC(c2ccc(F)c(F)c2)C1C(=O)Nc1cccc(F)c1 (racemic) [Compound 12] :: 0
N#Cc1ccccc1NC(=O)C1C(=O)NCC1c1ccccc1 (racemic) [Compound 86] :: 0

Pending compound:
Input line: Which measured Plant response rating, Pigweed value corresponds to O=C1NCC(c2ccc(Cl)cc2)C1C(=O)Nc1ccccc1F (racemic) [Compound 87] ?
Output line: 0

----------
# Tested on: giant foxtail
# TEST NAME: Test A pre-/postemergence herbicide test
# Type: in vivo, Setaria faberii
# ASSAY CONDITIONS: Postemergence, 1000 g ai/ha; 0 to 100 scale (0 no effect, 100 complete control)
Listing: Plant response rating, Foxtail, Giant of selected compounds
Reply briefly: the number, and no unit.

O=C1NCC(c2cc(F)c(F)c(F)c2)C1C(=O)Nc1ccccc1F (racemic) [Compound 34] :: 90

Input line: I'm curious: which Plant response rating, Foxtail, Giant was measured for O=C1NCC(c2ccc(F)c(F)c2)C1C(=O)Nc1ccccc1[N+](=O)[O-] (racemic) [Compound 20] tested on giant foxtail?
Output line: 80

Input line: Same read-out for O=C1NCC(c2ccc(F)c(F)c2)C1C(=O)N(O)c1ccccc1 (stereo not shown) [Compound 71] ?
Output line: 60

Input line: Same read-out for O=C1NCC(c2cc(F)c(F)c(F)c2)C1C(=O)Nc1ccccc1C(F)(F)F (racemic) [Compound 33] ?
Output line: 90

----------
Listing: Plant response rating, Wheat of selected molecules
# Tested on: wheat
# TEST NAME: Test A pre-/postemergence herbicide test
# Type: in vivo, Triticum aestivum
# ASSAY CONDITIONS: Postemergence, 500 g ai/ha; 0 to 100 scale (0 no effect, 100 complete control)
Reply briefly: the number, and no unit.

O=C1NCC(c2cc3ccccc3o2)C1C(=O)Nc1ccccc1C(F)(F)F (centres unmarked) [Compound 283] :: 0
N#Cc1ccccc1NC(=O)C1C(=O)NCC1c1ccc(Cl)c(Cl)c1 (racemic) [Compound 15] :: 0
O=C1NCC(c2cccc(C(F)(F)F)c2)C1C(=O)Nc1cccc(F)c1F (centres unmarked) [Compound 241] :: 70
CC1(c2ccccc2)CNC(=O)C1C(=O)Nc1ccccc1F (centres unmarked) [Compound 301] :: 0
O=C1NCC(c2ccc(F)cc2)C1C(=O)Nc1ccccc1F (racemic) [Compound 16] :: 50
O=C1NCC(c2ccc(Cl)s2)C1C(=O)Nc1ccccc1C(F)(F)F (centres unmarked) [Compound 293] :: 0
O=C1NCC(c2ccc(F)c(F)c2)C1C(=O)Nc1ccc[nH]c1=O (racemic) [Compound 97] :: 0
O=C1NCC(c2cc(F)cc(F)c2)C1C(=O)Nc1cccc(F)c1F (racemic) [Compound 279] :: 60
O=C1NCC(c2ccc(F)c(F)c2)C1C(=O)Nc1cccc(F)c1F (racemic) [Compound 107] :: 0
O=C1NCC(c2ccccc2)C1(Br)C(=O)Nc1ccc(Br)cc1F (centres unmarked) [Compound 94] :: 0

Pending molecule:
Input line: Which measured Plant response rating, Wheat value corresponds to O=C1NCC(c2cccc(Br)c2)C1C(=O)Nc1ccccc1F (centres unmarked) [Compound 66] ?
Output line: 30
